test: toxicologic investigations (LD50); settings: rat, in vivo, po; rats, peroral application
metric name: LD50

Prompt: State, in one line, measured LD50 of C/C=C/c1cc(OC)c2c(c1)[C@@H](C)[C@H](c1cc(CN(C)CCO)c(O)c(OC)c1)O2.Cl (relative stereo)
Completion: 4000 to 16000 mg/kg
